Would you kindly list pKi for each of these compounds?
target: cloned human kappa (hKOR) receptor (Homo sapiens); construct: expressed in transfected cells; host or cells: HN9.10 (mouse hippocampal neuroblastoma), stably transfected; assay: biochemical; format: binding; details: read-out: Ki KOR
Sequence (P41145 whole entry): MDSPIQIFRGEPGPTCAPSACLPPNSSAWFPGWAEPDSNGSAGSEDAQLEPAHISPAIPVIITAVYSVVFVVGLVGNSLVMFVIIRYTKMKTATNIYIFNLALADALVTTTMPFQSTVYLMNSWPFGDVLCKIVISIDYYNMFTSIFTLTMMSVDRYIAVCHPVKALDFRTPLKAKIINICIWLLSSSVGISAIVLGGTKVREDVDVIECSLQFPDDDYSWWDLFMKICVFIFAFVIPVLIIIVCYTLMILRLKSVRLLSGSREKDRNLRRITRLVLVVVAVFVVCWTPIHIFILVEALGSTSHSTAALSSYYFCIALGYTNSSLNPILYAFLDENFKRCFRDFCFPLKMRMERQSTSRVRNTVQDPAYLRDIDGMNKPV
Where a SMILES comes first, the peptide text is derived from it. [ ]: non-standard residue; d: D form. The star is where a group is joined. dPhe(4-Cl) = N[C@H](Cc1ccc(Cl)cc1)C(=O)O; dPhe(4-F) = N[C@H](Cc1ccc(F)cc1)C(=O)O; NH(thiazol-2-yl) = c1csc(N*)n1; d2Thi = N[C@H](Cc1cccs1)C(=O)O; dNle = CCCC[C@@H](N)C(=O)O; Morpholide = C1CN(*)CCO1; NHCH2CH2OH = OCCN*; X2 = OC1CCN(*)CC1; NHPr = CCCN*
Keep it numeric: pKi is minus log10 of the concentration in mol/L.

Lookup: Form field: pKi recorded for CCCC[C@@H](NC(=O)[C@@H](Cc1ccccc1)NC(=O)[C@H](N)Cc1ccccc1)C(=O)N[C@H](CCCNC(=N)N)C(=O)NCCC [Peptide 3, H-D-Phe-D-Phe-D-Nle-D-Arg-NHPr] (H-[dF][dF][dNle][dR]-NHPr) with cloned human kappa (hKOR) receptor (Homo sapiens) (enter value)
Found: 10.05

Lookup: Form field: pKi recorded for CC(C)C[C@@H](NC(=O)[C@@H](Cc1ccc(Cl)cc1)NC(=O)[C@H](N)Cc1ccc(F)cc1)C(=O)N[C@H](CCCNC(=N)N)C(=O)N1CCOCC1 [Peptide 65, H-D-4Fpa-D-4Cpa-D-Leu-D-Arg-Mor] (H-[dPhe(4-F)][dPhe(4-Cl)][dL][dR]-Morpholide) with cloned human kappa (hKOR) receptor (Homo sapiens) (enter value)
Found: 9.77

Lookup: Form field: pKi recorded for CCCC[C@@H](NC(=O)[C@@H](Cc1ccccc1)NC(=O)[C@H](N)Cc1ccccc1)C(=O)N[C@H](CCCNC(=N)N)C(=O)NCCO [Peptide 9, H-D-Phe-D-Phe-D-Nle-D-Arg-NHhEt] (H-[dF][dF][dNle][dR]-NHCH2CH2OH) with cloned human kappa (hKOR) receptor (Homo sapiens) (enter value)
Found: 9.40

Lookup: Form field: pKi recorded for CCNC(=O)[C@@H](CCCN)NC(=O)[C@@H](CC(C)C)NC(=O)[C@@H](Cc1ccccc1)NC(=O)[C@H](N)Cc1ccccc1 [Peptide 56, H-D-Phe-D-Phe-D-Leu-D-Orn-NHEt] with cloned human kappa (hKOR) receptor (Homo sapiens) (enter value)
Found: 9.51

Lookup: Form field: pKi recorded for CCCC[C@@H](NC(=O)[C@@H](Cc1ccccc1)NC(=O)[C@H](N)Cc1ccccc1)C(=O)N[C@H](Cc1ccc(CNC(=N)N)cc1)C(=O)N1CCOCC1 [Peptide 58, H-D-Phe-D-Phe-D-Nle-D-Gmf-Mor] with cloned human kappa (hKOR) receptor (Homo sapiens) (enter value)
Found: 9.34

Lookup: Form field: pKi recorded for CCCC[C@@H](NC(=O)[C@@H](Cc1ccccc1)NC(=O)[C@H](N)Cc1ccccc1)C(=O)N[C@H](CCCNC(=N)N)C(=O)Nc1nccs1 [Peptide 13, H-D-Phe-D-Phe-D-Nle-D-Arg-NH(2-Tzl)] (H-[dF][dF][dNle][dR]-{NH(thiazol-2-yl)}) with cloned human kappa (hKOR) receptor (Homo sapiens) (enter value)
Found: 9.23

Lookup: Form field: pKi recorded for CC(C)C[C@@H](NC(=O)[C@@H](Cc1ccc(Cl)cc1)NC(=O)[C@H](N)Cc1cccs1)C(=O)N[C@H](CCCNC(=N)N)C(=O)N1CCOCC1 [Peptide 59, H-D-Ala(2Thi)-D-4Cpa-D-Leu-D-Arg-Mor] (H-[d2Thi][dPhe(4-Cl)][dL][dR]-Morpholide) with cloned human kappa (hKOR) receptor (Homo sapiens) (enter value)
Found: 9.60

Lookup: Form field: pKi recorded for CCCC[C@@H](NC(=O)[C@@H](Cc1ccccc1)NC(=O)[C@H](N)Cc1ccccc1)C(=O)N[C@H](CCCNC(=N)N)C(=O)N1CCC(O)CC1 [Peptide 11, H-D-Phe-D-Phe-D-Nle-D-Arg-4-HyP] (H-[dF][dF][dNle][dR]-X2) with cloned human kappa (hKOR) receptor (Homo sapiens) (enter value)
Found: 10.22
